# Method: Toxicity liver stage against HepG2, at 10uM
# Type: cell-based
# Design: test concentration 10 uM, cell line HepG2-A16-CD81EGFP
# Condition: human, HepG2-A16-CD81EGFP cells; read-out: INHIBITION
Entries and their cytotoxicity at 10 µM values follow.
Give just the numeric value; % need not be written.

[
  {
    "Compound": "Cc1cc(C(=O)NCc2csc(N(C)C)n2)c2ccc(C)c(C)c2n1",
    "cytotoxicity at 10 µM [%]": -0.724
  },
  {
    "Compound": "Cc1nc(Nc2nncs2)cc(C2CNC2)n1",
    "cytotoxicity at 10 µM [%]": 5.88
  },
  {
    "Compound": "CSc1ccc(C(=O)N2CCOCC2c2c(C)nn(C)c2C)o1 (stereo not drawn)",
    "cytotoxicity at 10 µM [%]": -2.12
  },
  {
    "Compound": "CCC(C)NC(=O)NCCC(=O)N1CCN(c2ccccn2)CC1 (stereo not drawn)",
    "cytotoxicity at 10 µM [%]": 4.22
  },
  {
    "Compound": "O=C(NCc1cccnc1)C1CN(c2cnc3ccccc3n2)CCN1 (stereo not drawn)",
    "cytotoxicity at 10 µM [%]": -48.9
  },
  {
    "Compound": "CC(C)(CO)N1CCN(S(=O)(=O)CCCF)CC1",
    "cytotoxicity at 10 µM [%]": -4.3
  },
  {
    "Compound": "Cc1nc(CN(C)C(=O)C2CC(=O)N(c3cccc(O)c3)C2)cs1 (stereo not drawn)",
    "cytotoxicity at 10 µM [%]": -0.968
  },
  {
    "Compound": "CC(C)(C)C(=O)N1CCC2(CC1)CC(Oc1ccccc1)CO2 (stereo not drawn)",
    "cytotoxicity at 10 µM [%]": 4.12
  },
  {
    "Compound": "CCc1ccc(CN2CCC(c3ccccc3C(=O)O)C2)nc1 (stereo not drawn)",
    "cytotoxicity at 10 µM [%]": 1.69
  },
  {
    "Compound": "Cc1nc(C2CCCN(C(=O)Cn3ccccc3=O)C2)sc1C (stereo not drawn)",
    "cytotoxicity at 10 µM [%]": 1.5
  }
]

Let me know recorded cytotoxicity at 10 µM for Cc1cc(C)n(CC2CN(Cc3cnc(C)s3)CCO2)n1 (stereo not drawn) , thanks.
-19.7

Output cytotoxicity at 10 µM of `Cc1cn2c(=O)c(-c3ccnc(NC4CCOCC4)n3)cnc2s1`
-5.5

Consider the compound `O=C(c1cncnc1)N1C[C@@H]2CC[C@H](Oc3cccc(F)c3)[C@@H]2C1` . State its measured cytotoxicity at 10 µM.
-17.1

State its cytotoxicity at 10 µM for this compound: `CC(C)C[C@H]1CN(c2nc3c(cc2C(N)=O)CCC3)CC[C@@]1(C)O`
-4.51

Give cytotoxicity at 10 µM for O=C(Nc1nncs1)NC1CCN(Cc2ccccc2)C1 (stereo not drawn)
-0.397

Give the reported cytotoxicity at 10 µM for this compound. CCN(C(=O)CN(C)C(c1cccc(F)c1)c1ccccn1)C1CC1 (stereo not drawn)
-8.65

----------
# Method: Toxicity liver stage against HepG2, at 10uM
# Format: cell-based
# Design: test concentration 10 uM, cell line HepG2-A16-CD81EGFP
# Condition: human, HepG2-A16-CD81EGFP cells; read-out: INHIBITION
Measured Property: cytotoxicity at 10 µM (%)
API: value field is a number in %; no unit string.

// solved cases for cytotoxicity at 10 µM follow
[
  {
    "Compound": "O[C@@H]1C[C@@H](c2nc(Cc3ccccc3)no2)N(CC2CC2)C1",
    "cytotoxicity at 10 µM / %": -3.5
  },
  {
    "Compound": "COCCC1(C(=O)O)CCCN(Cc2cc3c(cc2Cl)OCO3)C1 (centres undefined)",
    "cytotoxicity at 10 µM / %": -5.41
  },
  {
    "Compound": "CN(Cc1ccc(F)cc1)C(=O)CN1CCCC(Cn2cncn2)C1 (centres undefined)",
    "cytotoxicity at 10 µM / %": -14.8
  },
  {
    "Compound": "C[S+]([O-])c1nncn1CCc1ccccc1 (centres undefined)",
    "cytotoxicity at 10 µM / %": -12.6
  },
  {
    "Compound": "CN(C)c1ccc(C(=O)N2CCCC2c2noc(C3CC3)n2)nn1 (centres undefined)",
    "cytotoxicity at 10 µM / %": -8.36
  },
  {
    "Compound": "Cc1cccc(CC2COCCN(Cc3nccn3C)C2)n1 (centres undefined)",
    "cytotoxicity at 10 µM / %": 1.61
  },
  {
    "Compound": "Cc1cnc(C(=O)N2CCCN(Cc3csc(C)n3)CC2)cn1",
    "cytotoxicity at 10 µM / %": -16
  },
  {
    "Compound": "Cc1nnnn1-c1cc(NCc2cc(C#N)ccc2F)ccc1F",
    "cytotoxicity at 10 µM / %": 0.685
  }
]

Complete the entry with cytotoxicity at 10 µM for `O=C(CO[C@@H]1CC[C@H]2[C@H]1OCCN2CC1CCOCC1)N1CCCC1`
-11.6

Quickly give me recorded cytotoxicity at 10 µM for `COc1ccc2c(c1)nc1n2[C@@H](CNCc2ccccc2)COC1`
-0.201

Identify cytotoxicity at 10 µM associated with the compound `CC1=N[C@@]2(CC[C@@H]3CN(S(=O)(=O)C4CC4)C[C@@H]32)C(=O)N1CC(C)C`
-76.8

Tell me cytotoxicity at 10 µM reported for `CS(=O)(=O)NCc1ccc(NC(=O)CC2=CCCCC2)cc1`
-2.48

Supply measured cytotoxicity at 10 µM of `Cc1noc(CN(CCc2ccco2)Cc2cccc(C#N)c2)n1` in your reply.
3.04

Given `COc1cccc(CN(C)Cc2c(C)noc2C)c1OC` , respond with its cytotoxicity at 10 µM.
8.82

Item COCC1N(C(=O)N2CCOCC2)C2CCC1(O)CC2 (centres undefined) : provide cytotoxicity at 10 µM
-0.791

Provide one value: measured cytotoxicity at 10 µM of `c1cnn(Cc2nnc3n2CCCN(c2nccs2)C3)c1`
9.37
